# test-target: GAL4 DBD (1-147)-CfEcR(DEF)/VP16AD-βRXREF-LmUSPEF (Choristoneura fumiferana)
# Construct: The wild-type D, E, and F domains from spruce budworm Choristoneura fumiferana EcR (“CfEcR-DEF”)
# run-description: cell-based
pEC50: −log10 of the molar value.
// values below are reported pEC50

| compound | result |
| --- | --- |
| CCc1ccc(C(=O)NN2C(c3ccccc3)=NOC23CCOCC3)cc1 | < 4.48 |
| CCc1c(OC)cccc1C(=O)NN1C(c2cccc(C(F)(F)F)c2)=NOC1(C)C | < 4.48 |
| Cc1cc(C)cc(C2=NOC(C)(C)N2NC(=O)c2cccc(F)c2)c1 | < 4.48 |
| CCc1ccc(C(=O)NN2C(c3ccc(OC)cc3OC)=NOC2(C)C)cc1 | < 4.48 |
| CCc1ccc(C(=O)NN2C(c3ccccc3)=NOC2(C)CC)cc1 (centres unmarked) | < 4.48 |

Turning now to a further compound:
Please look up its pEC50: CCc1ccc(C(=O)NN2C(c3ccccc3)=NOC2(C)C)c(F)c1 < 4.48
